Where do these numbers come from? They come from the supplement of paper PMC10567573.

B1: KIAA0774 (parent)
chain: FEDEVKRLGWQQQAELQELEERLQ

- Variants of: B1
- ASSAY COMMENT: protein stability index of a GFP-peptide fusion (GPS, HEK-293T) (PSI 1-6); higher = more stable;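 also: lentivirally expressed fusions sorted by FACS into six bins by GFP to DsRed ratio, PSI derived from sequencing read proportions per bin multiplied by bin number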
- EXPERIMENTAL CONTEXT: c terminus: a fixed tail appended

{"RESIDUE CHANGE": "L16V", "protein stability index": 4.86}
{"RESIDUE CHANGE": "G9S", "protein stability index": 1.91}
{"RESIDUE CHANGE": "E4Q", "protein stability index": 3.26}
{"RESIDUE CHANGE": "D3C", "protein stability index": 2.3}
{"RESIDUE CHANGE": "R7T", "protein stability index": 4.45}
{"RESIDUE CHANGE": "E20C", "protein stability index": 4.34}
{"RESIDUE CHANGE": "R22E", "protein stability index": 5.78}
{"RESIDUE CHANGE": "Q11M", "protein stability index": 3.79}
{"RESIDUE CHANGE": "E20I", "protein stability index": 3.74}
{"RESIDUE CHANGE": "E21N", "protein stability index": 3.17}
{"RESIDUE CHANGE": "Q12R", "protein stability index": 3}
{"RESIDUE CHANGE": "G9N", "protein stability index": 2.62}
{"RESIDUE CHANGE": "Q11P", "protein stability index": 4.57}
{"RESIDUE CHANGE": "Q17S", "protein stability index": 4.75}
{"RESIDUE CHANGE": "Q24L", "protein stability index": 3.48}
{"RESIDUE CHANGE": "L19A", "protein stability index": 3.48}
{"RESIDUE CHANGE": "Q24A", "protein stability index": 3.81}
{"RESIDUE CHANGE": "E2N", "protein stability index": 2.5}
{"RESIDUE CHANGE": "Q24M", "protein stability index": 3.92}
{"RESIDUE CHANGE": "V5A", "protein stability index": 3.86}
{"RESIDUE CHANGE": "L16P", "protein stability index": 5.24}
{"RESIDUE CHANGE": "Q13Y", "protein stability index": 3.58}
{"RESIDUE CHANGE": "L23N", "protein stability index": 4.42}
{"RESIDUE CHANGE": "E2W", "protein stability index": 3.33}
{"RESIDUE CHANGE": "G9M", "protein stability index": 3.13}
{"RESIDUE CHANGE": "L19T", "protein stability index": 4.65}
{"RESIDUE CHANGE": "D3M", "protein stability index": 2.59}
{"RESIDUE CHANGE": "E15R", "protein stability index": 2.92}
{"RESIDUE CHANGE": "R22I", "protein stability index": 4.06}
{"RESIDUE CHANGE": "G9D", "protein stability index": 3.9}
{"RESIDUE CHANGE": "G9H", "protein stability index": 4.11}
{"RESIDUE CHANGE": "L16G", "protein stability index": 5.23}
{"RESIDUE CHANGE": "W10Y", "protein stability index": 4.86}
{"RESIDUE CHANGE": "V5S", "protein stability index": 3.47}
{"RESIDUE CHANGE": "A14F", "protein stability index": 2.63}
{"RESIDUE CHANGE": "K6Y", "protein stability index": 4.4}
{"RESIDUE CHANGE": "Q13H", "protein stability index": 4.39}
{"RESIDUE CHANGE": "G9E", "protein stability index": 4.63}
{"RESIDUE CHANGE": "K6E", "protein stability index": 4.67}
{"RESIDUE CHANGE": "R7N", "protein stability index": 4.12}
{"RESIDUE CHANGE": "D3Y", "protein stability index": 2.85}
{"RESIDUE CHANGE": "Q17Y", "protein stability index": 3.26}
{"RESIDUE CHANGE": "E20H", "protein stability index": 4.29}
{"RESIDUE CHANGE": "L16T", "protein stability index": 5.08}
{"RESIDUE CHANGE": "Q24H", "protein stability index": 3.93}
{"RESIDUE CHANGE": "K6I", "protein stability index": 3.39}
{"RESIDUE CHANGE": "K6Q", "protein stability index": 4.07}
{"RESIDUE CHANGE": "Q24F", "protein stability index": 3.28}
{"RESIDUE CHANGE": "E18C", "protein stability index": 3.17}
{"RESIDUE CHANGE": "E21W", "protein stability index": 2.91}
{"RESIDUE CHANGE": "A14K", "protein stability index": 5.32}
{"RESIDUE CHANGE": "L8S", "protein stability index": 3.88}
{"RESIDUE CHANGE": "Q11H", "protein stability index": 5.08}
{"RESIDUE CHANGE": "Q12Y", "protein stability index": 2.31}
{"RESIDUE CHANGE": "Q17L", "protein stability index": 4.54}
{"RESIDUE CHANGE": "K6C", "protein stability index": 3.87}
{"RESIDUE CHANGE": "E4D", "protein stability index": 4.14}
{"RESIDUE CHANGE": "D3H", "protein stability index": 2.99}
{"RESIDUE CHANGE": "E2T", "protein stability index": 2.77}
{"RESIDUE CHANGE": "E15T", "protein stability index": 3.87}
{"RESIDUE CHANGE": "Q24I", "protein stability index": 3.41}
{"RESIDUE CHANGE": "Q12K", "protein stability index": 4.03}
{"RESIDUE CHANGE": "Q13P", "protein stability index": 5.11}
{"RESIDUE CHANGE": "E4G", "protein stability index": 3.21}
{"RESIDUE CHANGE": "Q11D", "protein stability index": 5.16}
{"RESIDUE CHANGE": "L23W", "protein stability index": 3.88}
{"RESIDUE CHANGE": "A14T", "protein stability index": 2.53}
{"RESIDUE CHANGE": "L16W", "protein stability index": 3.93}
{"RESIDUE CHANGE": "E15V", "protein stability index": 3.65}
{"RESIDUE CHANGE": "E21D", "protein stability index": 4.27}
{"RESIDUE CHANGE": "R7C", "protein stability index": 4.61}
{"RESIDUE CHANGE": "L8D", "protein stability index": 4.77}
{"RESIDUE CHANGE": "E4H", "protein stability index": 3.59}
{"RESIDUE CHANGE": "W10A", "protein stability index": 5.49}
{"RESIDUE CHANGE": "Q17G", "protein stability index": 5.2}
{"RESIDUE CHANGE": "L19D", "protein stability index": 5.22}
{"RESIDUE CHANGE": "E21A", "protein stability index": 4.69}
{"RESIDUE CHANGE": "L23S", "protein stability index": 4.91}
{"RESIDUE CHANGE": "L16Q", "protein stability index": 4.09}
